target system: Glucocorticoid Receptor (GR) (Homo sapiens, UniProt P04150)
Construct: Cells were transfected the next day with MMTV-Luc (5 μg) and pGL4-hRLuc (0.1 μg); endogenous in cells; host or cells: HeLa
Sequence (P04150 1-777): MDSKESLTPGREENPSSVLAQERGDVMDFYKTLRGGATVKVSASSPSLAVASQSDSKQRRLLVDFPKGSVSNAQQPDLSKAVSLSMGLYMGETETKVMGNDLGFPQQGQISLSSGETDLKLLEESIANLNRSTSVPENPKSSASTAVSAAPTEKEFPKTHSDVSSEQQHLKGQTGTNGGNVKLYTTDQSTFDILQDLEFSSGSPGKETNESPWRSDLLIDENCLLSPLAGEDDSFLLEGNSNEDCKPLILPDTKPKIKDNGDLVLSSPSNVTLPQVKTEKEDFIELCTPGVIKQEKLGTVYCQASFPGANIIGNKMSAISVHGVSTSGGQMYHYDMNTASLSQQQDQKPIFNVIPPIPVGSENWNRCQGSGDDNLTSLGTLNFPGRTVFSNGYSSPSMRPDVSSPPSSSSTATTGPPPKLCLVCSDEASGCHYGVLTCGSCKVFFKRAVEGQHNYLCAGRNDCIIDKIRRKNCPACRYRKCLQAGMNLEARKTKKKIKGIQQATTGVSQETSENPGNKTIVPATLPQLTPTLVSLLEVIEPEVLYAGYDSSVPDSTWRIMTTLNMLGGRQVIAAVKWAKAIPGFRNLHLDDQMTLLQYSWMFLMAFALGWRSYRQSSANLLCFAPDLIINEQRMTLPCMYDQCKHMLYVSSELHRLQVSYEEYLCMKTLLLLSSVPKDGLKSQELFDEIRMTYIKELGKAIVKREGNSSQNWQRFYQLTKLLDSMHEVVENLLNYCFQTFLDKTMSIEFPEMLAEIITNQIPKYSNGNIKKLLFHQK
experiment: Transactivation assay (MMTV-Luc reporter in HeLa cells)
Assay type: cell-based
experimental conditions: HeLa, 16 h; read-out: TA Max %
parameter measured: Emax (%)
Quick reminder: number only, in %, skip the unit.

# molecule, unit annotation, Emax
records = [
    ("C[C@@H]1C[C@H]2[C@@H]3CCC4=CC(=O)C=C[C@]4(C)[C@@]3(F)[C@@H](O)C[C@]2(C)[C@@]1(O)C(=O)NCCOc1nc2ccccc2o1 [Compound 10]", "%", 4.79),
    ("C[C@@H]1C[C@H]2[C@@H]3CCC4=CC(=O)C=C[C@]4(C)[C@@]3(F)[C@@H](O)C[C@]2(C)[C@@]1(O)c1csc(NC(=O)c2ncco2)n1 [Compound 33]", "%", 0),
    ("CCOc1ccc(C(=O)Nc2nc([C@@]3(O)[C@H](C)C[C@H]4[C@@H]5CCC6=CC(=O)C=C[C@]6(C)[C@@]5(F)[C@@H](O)C[C@@]43C)cs2)cc1 [Compound 46]", "%", 9.95),
]

Recorded Emax for C[C@@H]1C[C@H]2[C@@H]3CCC4=CC(=O)C=C[C@]4(C)[C@@]3(F)[C@@H](O)C[C@]2(C)[C@@]1(O)c1csc(NC(=O)c2ccccc2F)n1 [Compound 28] with Glucocorticoid Receptor (GR) (Homo sapiens, UniProt P04150), please?
0

Recorded Emax for C[C@@H]1C[C@H]2[C@@H]3CCC4=CC(=O)C=C[C@]4(C)[C@@]3(F)[C@@H](O)C[C@]2(C)[C@@]1(O)C(=O)NCCCOc1ccc(C(F)(F)F)cc1 [Compound 9] with Glucocorticoid Receptor (GR) (Homo sapiens, UniProt P04150), please?
15.1

====

# EC50 values compiled below
target system: Glucocorticoid Receptor (GR) (Homo sapiens)
Construct: Cells were transfected the next day with MMTV-Luc (5 μg) and pGL4-hRLuc (0.1 μg); endogenous in cells
experiment: Transactivation assay (MMTV-Luc reporter in HeLa cells)
experimental conditions: concentration for half-maximal transactivation; HeLa, MMTV-Luc, 16 hours; mean; read-out: TA EC50
Procedure: HeLa cells were seeded at 80×10^4 cells/dish in 100 mm dishes. Cells were transfected the next day with MMTV-Luc (5 μg) and pGL4-hRLuc (0.1 μg), in 250 μL of Opti-MEM I using FuGENE HD (15 μL). […] Firefly and Renilla luciferase activity was measured using the Dual Luciferase Reporter system following the manufacturer's protocol. IC50 and EC50 values were calculated by using GraphPad Prism 5.0. Briefly, luminescence values for luciferase were normalised using the Renilla luminescence values. […]
Quick reminder: number only, in nM, skip the unit.

I have this compound here, `COc1ccc(OCCCNC(=O)[C@@]2(O)[C@H](C)C[C@H]3[C@@H]4CCC5=CC(=O)C=C[C@]5(C)[C@@]4(F)[C@@H](O)C[C@@]32C)cc1` , and I need its recorded EC50.
69.2

====

# EC50 values compiled below
target system: Glucocorticoid Receptor (GR) (Homo sapiens)
Construct: Cells were transfected the next day with MMTV-Luc (5 μg) and pGL4-hRLuc (0.1 μg); endogenous in cells
experiment: Transactivation assay (MMTV-Luc reporter in HeLa cells)
experimental conditions: concentration for half-maximal transactivation; HeLa, MMTV-Luc, 16 hours; mean; read-out: TA EC50
Quick reminder: number only, in µM, skip the unit.

Worked examples, 2 compounds total:
# smi, target system, EC50 (µM)
records = [
    ("C[C@@H]1C[C@H]2[C@@H]3CCC4=CC(=O)C=C[C@]4(C)[C@@]3(F)[C@@H](O)C[C@]2(C)[C@@]1(O)c1csc(NC(=O)c2ccc(Cl)cc2)n1", "Glucocorticoid Receptor (GR) (Homo sapiens)", 1.64),
    ("C[C@@H]1C[C@H]2[C@@H]3CCC4=CC(=O)C=C[C@]4(C)[C@@]3(F)[C@@H](O)C[C@]2(C)[C@@]1(O)c1csc(NC(=O)c2ccccc2F)n1", "Glucocorticoid Receptor (GR) (Homo sapiens)", 29.4),
]

I have this compound here, `Cc1ccc(C(=O)Nc2nc([C@@]3(O)[C@H](C)C[C@H]4[C@@H]5CCC6=CC(=O)C=C[C@]6(C)[C@@]5(F)[C@@H](O)C[C@@]43C)cs2)cc1` , and I need its recorded EC50.
8.48

I have this compound here, `COc1ccc(CNc2nc([C@@]3(O)[C@H](C)C[C@H]4[C@@H]5CCC6=CC(=O)C=C[C@]6(C)[C@@]5(F)[C@@H](O)C[C@@]43C)cs2)cc1` , and I need its recorded EC50.
0.392

====

# Emax values compiled below
target system: Glucocorticoid Receptor (GR) (Homo sapiens, UniProt P04150)
Construct: Cells were transfected the next day with MMTV-Luc (5 μg) and pGL4-hRLuc (0.1 μg); endogenous in cells; host or cells: HeLa
experiment: Transactivation assay (MMTV-Luc reporter in HeLa cells)
Format: cell-based
experimental conditions: HeLa, 16 h; read-out: TA Max %
Procedure: HeLa cells were seeded at 80×10^4 cells/dish in 100 mm dishes. Cells were transfected the next day with MMTV-Luc (5 μg) and pGL4-hRLuc (0.1 μg), in 250 μL of Opti-MEM I using FuGENE HD (15 μL). […] Firefly and Renilla luciferase activity was measured using the Dual Luciferase Reporter system following the manufacturer's protocol. IC50 and EC50 values were calculated by using GraphPad Prism 5.0. Briefly, luminescence values for luciferase were normalised using the Renilla luminescence values. […]
Quick reminder: number only, in %, skip the unit.

Worked examples, 3 compounds total:
# compound, Emax (%)
measured = [
    ("C[C@@H]1C[C@H]2[C@@H]3CCC4=CC(=O)C=C[C@]4(C)[C@@]3(F)[C@@H](O)C[C@]2(C)[C@@]1(O)c1csc(NC(=O)c2cnco2)n1 [Compound 41]", 1.27),
    ("C[C@@H]1C[C@H]2[C@@H]3CCC4=CC(=O)C=C[C@]4(C)[C@@]3(F)[C@@H](O)C[C@]2(C)[C@@]1(O)C(=O)NCCCOc1ccc(C(=O)O)cc1 [Compound 19]", 0.84),
    ("C[C@@H]1C[C@H]2[C@@H]3CCC4=CC(=O)C=C[C@]4(C)[C@@]3(F)[C@@H](O)C[C@]2(C)[C@@]1(O)c1csc(NC(=O)c2ccc(Cl)cc2)n1 [Compound 27]", 5.89),
]

I have this compound here, C[C@@H]1C[C@H]2[C@@H]3CCC4=CC(=O)C=C[C@]4(C)[C@@]3(F)[C@@H](O)C[C@]2(C)[C@@]1(O)c1csc(NC(=O)c2ccccn2)n1 [Compound 40] , and I need its recorded Emax.
1.34

I have this compound here, C[C@@H]1C[C@H]2[C@@H]3CCC4=CC(=O)C=C[C@]4(C)[C@@]3(F)[C@@H](O)C[C@]2(C)[C@@]1(O)c1csc(NC(=O)CCc2ccc(F)cc2)n1 [Compound 38] , and I need its recorded Emax.
2.48

I have this compound here, C[C@@H]1C[C@H]2[C@@H]3CCC4=CC(=O)C=C[C@]4(C)[C@@]3(F)[C@@H](O)C[C@]2(C)[C@@]1(O)c1csc(N(C)C(=O)c2ccc(F)cc2)n1 [Compound 43] , and I need its recorded Emax.
1.63

I have this compound here, C[C@@H]1C[C@H]2[C@@H]3CCC4=CC(=O)C=C[C@]4(C)[C@@]3(F)[C@@H](O)C[C@]2(C)[C@@]1(O)c1csc(NCc2ccccc2)n1 [Compound 25] , and I need its recorded Emax.
1.92
